target: Receptor tyrosine-protein kinase erbB-2 (Homo sapiens) (UniProt P04626); assay: Her2 expression decrease, cell viability multiplex – SKBR3 breast tumor cells, AlphaScreen, ATP viability, primary screen (AID 461); details: 18-24 h, at 10 µM, stronger effect = lower value;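 for Her2 level: lower value means less Her2 protein in the cells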;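 for viability: percent of carrier control wells set as 100% viability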
Sequence (P04626 whole entry, looked up): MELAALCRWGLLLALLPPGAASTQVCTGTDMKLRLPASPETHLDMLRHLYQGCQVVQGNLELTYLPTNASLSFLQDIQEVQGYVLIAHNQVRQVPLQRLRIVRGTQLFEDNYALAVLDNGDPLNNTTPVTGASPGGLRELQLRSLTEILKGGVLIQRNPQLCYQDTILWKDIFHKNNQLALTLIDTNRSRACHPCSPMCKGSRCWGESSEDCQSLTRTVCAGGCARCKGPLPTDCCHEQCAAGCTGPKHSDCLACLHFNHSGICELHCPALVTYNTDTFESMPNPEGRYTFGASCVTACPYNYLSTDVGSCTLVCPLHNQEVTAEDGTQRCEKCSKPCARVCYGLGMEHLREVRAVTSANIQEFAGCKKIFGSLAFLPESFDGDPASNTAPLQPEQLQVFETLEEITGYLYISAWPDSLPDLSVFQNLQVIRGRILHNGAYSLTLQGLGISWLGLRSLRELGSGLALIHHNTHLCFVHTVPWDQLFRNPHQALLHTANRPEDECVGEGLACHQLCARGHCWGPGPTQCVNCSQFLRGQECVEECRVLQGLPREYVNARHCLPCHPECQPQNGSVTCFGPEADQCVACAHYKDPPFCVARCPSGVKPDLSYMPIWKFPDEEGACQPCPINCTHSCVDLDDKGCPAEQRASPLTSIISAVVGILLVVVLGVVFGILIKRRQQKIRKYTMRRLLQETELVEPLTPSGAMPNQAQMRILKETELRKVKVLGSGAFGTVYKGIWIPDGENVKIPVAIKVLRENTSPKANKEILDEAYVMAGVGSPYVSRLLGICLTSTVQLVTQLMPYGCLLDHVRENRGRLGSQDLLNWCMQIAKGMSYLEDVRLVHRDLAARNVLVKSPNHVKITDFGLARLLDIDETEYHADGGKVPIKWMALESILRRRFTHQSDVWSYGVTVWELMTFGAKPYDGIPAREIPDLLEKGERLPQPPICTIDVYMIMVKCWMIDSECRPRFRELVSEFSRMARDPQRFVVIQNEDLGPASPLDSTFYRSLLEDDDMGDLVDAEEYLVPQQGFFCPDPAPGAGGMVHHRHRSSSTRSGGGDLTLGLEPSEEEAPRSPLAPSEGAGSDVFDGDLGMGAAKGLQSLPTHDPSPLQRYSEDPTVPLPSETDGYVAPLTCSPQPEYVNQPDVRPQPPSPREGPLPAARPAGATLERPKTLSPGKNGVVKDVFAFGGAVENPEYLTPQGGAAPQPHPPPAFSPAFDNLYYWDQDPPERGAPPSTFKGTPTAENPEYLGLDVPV

molecule	Her2 level (%)
Cc1c(C#N)c2ccccc2n1CC(=O)N1CCc2ccccc2C1	120
Cc1cc(N2CCOCC2)nc2ccc(NC(=O)C3CCC(C)CC3)cc12 (configuration not stated)	110
COc1ccccc1C(=O)NCCc1nc2ccccc2n1C	83
COc1ccc(C(C(=O)NC2CCCCC2)N2CCC3(CC2)OCCO3)cc1 (configuration not stated)	98
CCCCNC(=O)Cn1c(=O)n(C)c2ccccc21	96.5
CC(C)C(C(=O)Nc1ccc2c(c1)OCCO2)N1C(=O)c2ccccc2C1=O (configuration not stated)	102
CN1C(=O)C(O)(CC(=O)c2ccc(F)cc2)c2cc(Br)ccc21 (configuration not stated)	86.5
Cc1nc2ccccc2c2oc(C(=O)NCCCN3CCCC3=O)cc12	97.5
CCOC(=O)C(CC)(CCC(=O)O)c1csc(N)n1 (configuration not stated)	98.5
COc1ccccc1S(=O)(=O)Cc1ccc(C(=O)N2CCOCC2)o1	98.5
CCN(CC)c1ccc2cc(-c3nc4ccccc4[nH]3)c(=O)oc2c1	101
COc1ccc(OC)c(C2=NOC(C(=O)Nc3cc(C)nn3-c3ccccc3)C2)c1 (configuration not stated)	106
CC1CCN(S(=O)(=O)c2cccc(C(=O)Nc3ccccn3)c2)CC1	104
O=C(CSc1nnnn1-c1ccccc1Cl)Nc1ccc2c(c1)OCCO2	96
CC1=C(C(N)=O)C(c2ccncc2)n2nc(-c3ccccc3Cl)nc2N1 (configuration not stated)	96.5
CCN(CC)S(=O)(=O)c1ccc2oc(C(=O)N3CCOCC3)c(C)c2c1	101
Cc1ccc(-n2c3c(cc(C(=O)NC4CCSC4=O)c2=O)C(=O)CC(C)(C)C3)cc1 (configuration not stated)	99.5
COc1cc(C(=O)Nc2cccc(-c3nncn3C)c2)cc(OC)c1OC	110
Cc1cc(C)n(-c2cc(N3CCOCC3)ncn2)n1	90.5
Cc1[nH]nc2c1C(=O)CC(C)(C)C2	100
CCCCC(=O)NCCc1cc2c(C)ccc(C)c2[nH]c1=O	95
COC(=O)C(C)Sc1nnc2n(-c3cccc(C)c3)c(=O)c3c4c(sc3n12)CCCC4 (configuration not stated)	112
O=C(NC1CCN(Cc2ccccc2)CC1)C1CCN(S(=O)(=O)c2cccc3cccnc23)CC1	97.5
CCN(CC)C(=O)C1CCCN(c2ncnc3c2cnn3-c2ccc(Cl)cc2)C1 (configuration not stated)	96.5
CCCCn1c(CN2CCN(c3ccc(F)cc3)CC2)nc2c1c(=O)n(C)c(=O)n2C	93
COCCNC(=O)CN1C(=O)CSc2ncccc21	88
Cn1c(=O)c2c(nc3sccn32)n(C)c1=O	109
CC(NC(=O)c1cc2c(=O)n(C)c3ccccc3c2n1C)c1ccc2c(c1)OCCO2 (configuration not stated)	84
COc1ccccc1CNC(=O)C1CCC(CNc2c(N3CCOCC3)c(=O)c2=O)CC1 (configuration not stated)	126
CC(=O)Nc1ccc(N=Cc2ccc[nH]2)cc1	87.5
COc1ccc(-c2nnc3sc(C(C)N4C(=O)c5ccccc5C4=O)nn23)cc1 (configuration not stated)	111
Cc1nc(NCc2ccc3c(c2)OCO3)c2oc3ccccc3c2n1	104
CC1CCN(c2nc3c(c(=O)[nH]c(=O)n3C)n2CCSc2ncccn2)CC1	97
CC1(C)Oc2ccc3ccc(=O)oc3c2C(N2CCCCC2)C1O (configuration not stated)	94
CCN1CCN(C(=O)c2oc(=O)c3ccccc3c2-c2ccc(C)cc2)CC1	102
Cc1ccc(CNC(=O)C2CCCN(S(=O)(=O)c3cnc[nH]3)C2)cc1 (configuration not stated)	110
Cc1cc2ncc(-c3ccc(Cl)cc3)c(N)n2n1	114

---

The following molecules are listed with their measured viability values.
test: MRP1 drug-resistance reversers in H69AR cells – cell-based, doxorubicin co-treatment, pilot screen (AID 601); conditions: H69AR cells, CellTiter-Glo, 72 h; compound alone cytotoxicity; at 10 µM

smilesStr	viability, %
CN1CCC(NC(=O)c2cccs2)CC1	91
Cc1cccc(-n2ncc3c(NCc4cccnc4)ncnc32)c1	88
CCN(CC)C(=O)c1ccc(CS(=O)(=O)c2ccc(OC)cc2)o1	87.8

---

assay: viability of HCT116 without oncogenic beta-catenin – human colon tumor cells, pilot screen (AID 823); conditions: HCT116 beta-catenin knockout viability, CellTiter-Glo, 60 h; at 10 µM; stronger effect = lower value;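 note: 0% = wells killed by 20 µM Hyamine and 100% = untreated DMSO cell wells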
Inconclusive results are not listed.

compound	viability (%)
CCc1ccc(C2CC(c3ccc(C)cc3)n3nc(N)nc3N2)cc1 (configuration not stated)	101
COc1ccc(-n2c(=O)c3c4c(sc3n3cnnc23)CC(C)CC4)cc1 (configuration not stated)	87.8
C=C(C)Cn1c(-c2ccccc2)nc2ccccc21	80.2
c1ccc(N2CCN(Cc3cn4cccnc4n3)CC2)cc1	98
CCOC(=O)Cc1c(C)nc2c(-c3ccccc3)c[nH]n2c1=O	76.8
O=C(NC1CCCCCC1)C1CCCN1S(=O)(=O)c1cccc2cccnc12 (configuration not stated)	90.9
Cc1ccc(N2C(=O)c3ccc(C(=O)N4CCN(c5ccccc5F)CC4)cc3C2=O)cc1	90.5
O=C(Nc1nc2c(s1)CCCC2)C1COc2ccccc2O1 (configuration not stated)	90.3
O=C(CN1CCOc2ccccc21)NCc1ccco1	88.1
CC1(C)CC(=O)C(C=NCC2CCNCC2)=C(O)C1	92.2
CCN(CC)C(=O)C1CCCN(c2ncnc3c2cnn3-c2ccc(Cl)cc2)C1 (configuration not stated)	66
Cc1nc2ccccn2c1/C(O)=C1\C(=O)C(=O)N(CCCN(C)C)C1c1ccc(F)cc1 (configuration not stated)	104
Cc1ccn2cc(-c3ccc(S(=O)(=O)N4CCOCC4)cc3)nc2c1	106
CC1CCN(c2nc3c(c(=O)[nH]c(=O)n3C)n2CCSc2ncccn2)CC1	102
Cn1c(Cn2c(=O)sc3ccccc32)nnc1SCC(=O)Nc1ccc(F)cc1	105
CCCCn1c(SCC(=O)OCC)nc2c1c(=O)[nH]c(=O)n2C	94.4
CCOC(=O)N1CCC(NC(=O)c2ccc(CS(=O)(=O)c3c(Cl)cccc3Cl)o2)CC1	106
N#Cc1ccc(-c2csc(NC(=O)C3CC3)n2)cc1	103
COc1ccc(C2CC(c3cccc(C)c3)n3ncnc3N2)cc1 (configuration not stated)	100
CSCCC(NC(=O)c1c(C)oc2c1CCCC2)C(=O)O (configuration not stated)	98.5
CCc1cc2c(=O)c(-c3nc4ccccc4[nH]3)coc2c(CN2CCC(C)CC2)c1O	92.3
CC(=O)Nc1ccc(NC(=O)CSc2nccn2Cc2ccccc2)cc1	86.9
O=C(Nc1ccc2c(c1)OCO2)c1ccc(CN2CCOCC2)cc1	71.3
CCSc1nnc(NC(=O)c2cc3c(s2)CCCC3)s1	54.3
CCn1c(=O)c2cc(C(=O)NCc3cccs3)sc2c2ccccc21	102
COc1ccc(N2CCN(C(=O)c3c(-c4ccccc4)noc3C)CC2)cc1	94.4
COCCNC(=O)C(C)N(c1ccc(Oc2ccccc2)cc1)S(C)(=O)=O (configuration not stated)	90.7
CN(CCC#N)C(=O)Cn1nc(Cc2ccncc2)c2ccccc2c1=O	102
NC(=O)CSc1cn(CCNC(=O)c2cccs2)c2ccccc12	107
CC1CCc2nn(CC(=O)N3CCN(C(=O)c4ccco4)CC3)cc2C1 (configuration not stated)	104
O=C(c1ccco1)N1CCN(C2=NS(=O)(=O)c3ccccc32)CC1	93.1
COCCSc1nc2c(c(=O)[nH]c(=O)n2C)n1CCC(C)C	103
CC1CCN(C(C(=O)Nc2ccc3c(c2)OCO3)c2ccccc2)CC1 (configuration not stated)	83.8
CC(=O)c1ccc(NC(=O)C2CCN(S(=O)(=O)c3cccc4cccnc34)CC2)cc1	107
COc1ccc(C(=O)Oc2c(CN3CCOCC3)cc(Cl)c3cccnc23)cc1OC	9.93
CCN1CCN(C(c2cccs2)C(C)NC(=O)c2cccc(OC)c2)CC1 (configuration not stated)	103
COCCn1c(SCC(=O)Nc2ccc3c(c2)OCCO3)nc2c(c1=O)SC(C)C2 (configuration not stated)	102
[O-]/[N+](=C\c1ccc(OC(F)F)cc1)c1ccccc1	88.1
Cn1c(=O)oc2cc(S(=O)(=O)N3CCN(c4ccccn4)CC3)ccc21	66
COCc1nnc(NC(=O)c2ccc(S(=O)(=O)N(C)c3ccccc3)cc2)o1	29.7
Cc1cc(N=Cc2cc(Br)ccc2O)no1	90.8
O=C(CS(=O)(=O)c1cn(Cc2cccc(F)c2)c2ccccc12)N1CCOCC1	91.1

---

// viability lookup, one value per entry
test: Her2 expression decrease, cell viability multiplex – SKBR3 breast tumor cells, AlphaScreen, ATP viability, primary screen (AID 461); conditions: SKBR3 Her2 protein level, 18-24 h, measured here: SKBR3 viability, ATP luminescence, at 10 µM;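 for viability: percent of carrier control wells set as 100% viability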

smilesStr	viability / %
Cc1cc(=O)oc2c1c(C)nn2-c1ccc(C(=O)OC(C)C)cc1	83.5
O=C(c1cc2ccccc2oc1=O)N1CCN(c2ccc(N3CCOCC3)nn2)CC1	98
Cc1nc2ccc(Br)cn2c1NC(C)(C)C	89.5
